// values below are reported Slope Norm Reads
- System: HEK293 cells overexpressing human a-syn (WT)
- EXPERIMENTAL_DETAILS: Cytotoxicity screen of lentiviral 7-mer peptide library, Alpha Syn (WT) cells under MG132
- Assay type: cell-based

>  <SUBSTANCE>
IPIQLKA [PDpep1, top hit of all screens; maps to CHMP2B residues 203-209]

>  <TESTED_ON>
HEK293 cells overexpressing human a-syn (WT)

>  <Slope Norm Reads>
3.45

$$$$
>  <SUBSTANCE>
LQVGVAV [7-mer library hit, Alpha Syn screen]

>  <TESTED_ON>
HEK293 cells overexpressing human a-syn (WT)

>  <Slope Norm Reads>
0.09

$$$$
>  <SUBSTANCE>
PLPTGMG [7-mer library hit, Alpha Syn screen]

>  <TESTED_ON>
HEK293 cells overexpressing human a-syn (WT)

>  <Slope Norm Reads>
0.08

$$$$
>  <SUBSTANCE>
GAAAGGT [7-mer library hit, Alpha Syn screen]

>  <TESTED_ON>
HEK293 cells overexpressing human a-syn (WT)

>  <Slope Norm Reads>
0.06

$$$$
>  <SUBSTANCE>
LSGECVP [7-mer library hit, Alpha Syn screen]

>  <TESTED_ON>
HEK293 cells overexpressing human a-syn (WT)

>  <Slope Norm Reads>
0.07

$$$$
